Tested on: Streptococcus pyogenes
Assay: Antimicrobial activity against Streptococcus pyogenes MTCC 442 assessed as growth inhibition after 24 hr by turbidimetric method
Assay type: functional
Settings: MTCC 442, 24 h

# smiles_input, MIC [µg/mL]
records = [
    ("COc1ccc(C(=O)Nc2nc(C)c(C(=O)NNC(=S)Nc3ccccc3)s2)cc1", 500),
    ("COc1ccc(C(=O)Nc2nc(C)c(C(=O)N/N=C3\\S/C(=C\\c4ccccc4C)C(=O)N3c3ccccc3)s2)cc1", 100),
    ("COc1ccc(C(=O)Nc2nc(C)c(C(=O)N/N=C3\\S/C(=C\\c4ccc(O)cc4)C(=O)N3c3ccccc3)s2)cc1", 250),
    ("COc1ccc(C(=O)Nc2nc(C)c(C(=O)N/N=C3\\S/C(=C\\c4cccc(O)c4)C(=O)N3c3ccccc3)s2)cc1", 250),
    ("COc1ccc(C(=O)Nc2nc(C)c(C(=O)N/N=C3\\S/C(=C\\c4ccc([N+](=O)[O-])cc4)C(=O)N3c3ccccc3)s2)cc1", 500),
    ("COc1ccc(C(=O)Nc2nc(C)c(C(=O)N/N=C3\\S/C(=C\\c4ccccc4[N+](=O)[O-])C(=O)N3c3ccccc3)s2)cc1", 250),
    ("COc1ccc(C(=O)Nc2nc(C)c(C(=O)NN)s2)cc1", 1000),
    ("COc1ccc(C(=O)Nc2nc(C)c(C(=O)N/N=C3\\S/C(=C\\c4ccccc4O)C(=O)N3c3ccccc3)s2)cc1", 100),
    ("COc1ccc(C(=O)Nc2nc(C)c(C(=O)N/N=C3\\S/C(=C\\c4ccccc4Cl)C(=O)N3c3ccccc3)s2)cc1", 500),
    ("COc1ccc(C(=O)Nc2nc(C)c(C(=O)N/N=C3\\S/C(=C\\c4ccc(F)cc4)C(=O)N3c3ccccc3)s2)cc1", 250),
    ("COc1ccc(C(=O)Nc2nc(C)c(C(=O)N/N=C3\\S/C(=C\\c4ccc(Cl)cc4)C(=O)N3c3ccccc3)s2)cc1", 500),
]

---

Reported MIC values for the following compounds.
Test system: Aspergillus clavatus
Assay: Antimicrobial activity against Aspergillus clavatus MTCC 1323 assessed as growth inhibition after 48 hr
Assay type: functional
Details: MTCC 1323, 48 h

# smiles_input, readout_units, value_relation_sign, MIC
data = [
    ("COc1ccc(C(=O)Nc2nc(C)c(C(=O)N/N=C3\\SCC(=O)N3c3ccccc3)s2)cc1", "µg/mL", "=", 250),
    ("COc1ccc(C(=O)Nc2nc(C)c(C(=O)NNC(=S)Nc3ccccc3)s2)cc1", "µg/mL", ">", 1000),
    ("COc1ccc(C(=O)Nc2nc(C)c(C(=O)N/N=C3\\S/C(=C\\c4ccc(O)cc4)C(=O)N3c3ccccc3)s2)cc1", "µg/mL", "=", 250),
    ("COc1ccc(C(=O)Nc2nc(C)c(C(=O)N/N=C3\\S/C(=C\\c4ccc(C)cc4)C(=O)N3c3ccccc3)s2)cc1", "µg/mL", "=", 25),
    ("COc1ccc(C(=O)Nc2nc(C)c(C(=O)N/N=C3\\S/C(=C\\c4ccc(Cl)cc4)C(=O)N3c3ccccc3)s2)cc1", "µg/mL", "=", 500),
    ("COc1ccc(C(=O)Nc2nc(C)c(C(=O)NN)s2)cc1", "µg/mL", "=", 1000),
    ("COc1ccc(C(=O)Nc2nc(C)c(C(=O)N/N=C3\\S/C(=C\\c4cccc(OC)c4)C(=O)N3c3ccccc3)s2)cc1", "µg/mL", "=", 250),
    ("COc1ccc(C(=O)Nc2nc(C)c(C(=O)N/N=C3\\S/C(=C\\c4ccccc4C)C(=O)N3c3ccccc3)s2)cc1", "µg/mL", "=", 100),
]

---

Reported MIC values for the following molecules.
System: Pseudomonas aeruginosa
Assay: Antimicrobial activity against Pseudomonas aeruginosa MTCC 1688 assessed as growth inhibition after 24 hr by turbidimetric method
Format: functional
Details: MTCC 1688, 24 h

# smiles_input, readout_units, MIC
data = [
    ("COc1ccc(C(=O)Nc2nc(C)c(C(=O)NNC(=S)Nc3ccccc3)s2)cc1", "µg/mL", 500),
    ("COc1ccc(C(=O)Nc2nc(C)c(C(=O)N/N=C3\\S/C(=C\\c4ccc(F)cc4)C(=O)N3c3ccccc3)s2)cc1", "µg/mL", 250),
    ("COc1ccc(C(=O)Nc2nc(C)c(C(=O)N/N=C3\\S/C(=C\\c4ccc(C)cc4)C(=O)N3c3ccccc3)s2)cc1", "µg/mL", 50),
    ("COc1ccc(C(=O)Nc2nc(C)c(C(=O)N/N=C3\\S/C(=C\\c4ccccc4[N+](=O)[O-])C(=O)N3c3ccccc3)s2)cc1", "µg/mL", 250),
    ("COc1ccc(C(=O)Nc2nc(C)c(C(=O)NN)s2)cc1", "µg/mL", 1000),
    ("COc1ccc(C(=O)Nc2nc(C)c(C(=O)N/N=C3\\S/C(=C\\c4cccc(OC)c4)C(=O)N3c3ccccc3)s2)cc1", "µg/mL", 250),
    ("COc1ccc(C(=O)Nc2nc(C)c(C(=O)N/N=C3\\S/C(=C\\c4ccc(O)cc4)C(=O)N3c3ccccc3)s2)cc1", "µg/mL", 250),
    ("COc1ccc(C(=O)Nc2nc(C)c(C(=O)N/N=C3\\S/C(=C\\c4cccc(C)c4)C(=O)N3c3ccccc3)s2)cc1", "µg/mL", 250),
    ("COc1ccc(C(=O)Nc2nc(C)c(C(=O)N/N=C3\\S/C(=C\\c4ccc([N+](=O)[O-])cc4)C(=O)N3c3ccccc3)s2)cc1", "µg/mL", 500),
    ("COc1ccc(C(=O)Nc2nc(C)c(C(=O)N/N=C3\\S/C(=C\\c4ccccc4C)C(=O)N3c3ccccc3)s2)cc1", "µg/mL", 25),
    ("COc1ccc(C(=O)Nc2nc(C)c(C(=O)N/N=C3\\SCC(=O)N3c3ccccc3)s2)cc1", "µg/mL", 500),
    ("COc1ccc(C(=O)Nc2nc(C)c(C(=O)N/N=C3\\S/C(=C\\c4ccccc4OC)C(=O)N3c3ccccc3)s2)cc1", "µg/mL", 100),
    ("COc1ccc(C(=O)Nc2nc(C)c(C(=O)N/N=C3\\S/C(=C\\c4ccccc4Cl)C(=O)N3c3ccccc3)s2)cc1", "µg/mL", 250),
    ("COc1ccc(C(=O)Nc2nc(C)c(C(=O)N/N=C3\\S/C(=C\\c4ccccc4)C(=O)N3c3ccccc3)s2)cc1", "µg/mL", 500),
    ("COc1ccc(C(=O)Nc2nc(C)c(C(=O)N/N=C3\\S/C(=C\\c4ccccc4O)C(=O)N3c3ccccc3)s2)cc1", "µg/mL", 250),
    ("COc1ccc(C(=O)Nc2nc(C)c(C(=O)N/N=C3\\S/C(=C\\c4cccc(O)c4)C(=O)N3c3ccccc3)s2)cc1", "µg/mL", 100),
    ("COc1ccc(C(=O)Nc2nc(C)c(C(=O)N/N=C3\\S/C(=C\\c4ccc(Cl)cc4)C(=O)N3c3ccccc3)s2)cc1", "µg/mL", 500),
    ("COc1ccc(/C=C2\\S/C(=N\\NC(=O)c3sc(NC(=O)c4ccc(OC)cc4)nc3C)N(c3ccccc3)C2=O)cc1", "µg/mL", 50),
]

---

System: Aspergillus clavatus
Experiment: Antimicrobial activity against Aspergillus clavatus MTCC 1323 assessed as growth inhibition after 48 hr
Assay type: functional
Settings: MTCC 1323, 48 h
readout_type: MIC (µg/mL)

# molecule, readout_type, measurement
data = [
    ("COc1ccc(/C=C2\\S/C(=N\\NC(=O)c3sc(NC(=O)c4ccc(OC)cc4)nc3C)N(c3ccccc3)C2=O)cc1", "MIC", 50),
    ("COc1ccc(C(=O)Nc2nc(C)c(C(=O)N/N=C3\\S/C(=C\\c4cccc(C)c4)C(=O)N3c3ccccc3)s2)cc1", "MIC", 250),
    ("COc1ccc(C(=O)Nc2nc(C)c(C(=O)N/N=C3\\S/C(=C\\c4ccccc4Cl)C(=O)N3c3ccccc3)s2)cc1", "MIC", 250),
    ("COc1ccc(C(=O)Nc2nc(C)c(C(=O)N/N=C3\\S/C(=C\\c4cccc(O)c4)C(=O)N3c3ccccc3)s2)cc1", "MIC", 100),
    ("COc1ccc(C(=O)Nc2nc(C)c(C(=O)N/N=C3\\S/C(=C\\c4ccccc4O)C(=O)N3c3ccccc3)s2)cc1", "MIC", 250),
    ("COc1ccc(C(=O)Nc2nc(C)c(C(=O)N/N=C3\\S/C(=C\\c4ccccc4OC)C(=O)N3c3ccccc3)s2)cc1", "MIC", 100),
    ("COc1ccc(C(=O)Nc2nc(C)c(C(=O)N/N=C3\\S/C(=C\\c4ccc([N+](=O)[O-])cc4)C(=O)N3c3ccccc3)s2)cc1", "MIC", 500),
    ("COC1=CC(=O)C[C@@H](C)[C@]12Oc1c(Cl)c(OC)cc(OC)c1C2=O [GRISEOFULVIN]", "MIC", 100),
    ("COc1ccc(C(=O)Nc2nc(C)c(C(=O)N/N=C3\\S/C(=C\\c4ccccc4[N+](=O)[O-])C(=O)N3c3ccccc3)s2)cc1", "MIC", 250),
    ("COc1ccc(C(=O)Nc2nc(C)c(C(=O)N/N=C3\\S/C(=C\\c4ccc(F)cc4)C(=O)N3c3ccccc3)s2)cc1", "MIC", 500),
    ("COc1ccc(C(=O)Nc2nc(C)c(C(=O)N/N=C3\\S/C(=C\\c4ccccc4)C(=O)N3c3ccccc3)s2)cc1", "MIC", 500),
]

All values here come from ChEMBL document CHEMBL3045816.
